B1: library; numbered along this chain (parent)
chain: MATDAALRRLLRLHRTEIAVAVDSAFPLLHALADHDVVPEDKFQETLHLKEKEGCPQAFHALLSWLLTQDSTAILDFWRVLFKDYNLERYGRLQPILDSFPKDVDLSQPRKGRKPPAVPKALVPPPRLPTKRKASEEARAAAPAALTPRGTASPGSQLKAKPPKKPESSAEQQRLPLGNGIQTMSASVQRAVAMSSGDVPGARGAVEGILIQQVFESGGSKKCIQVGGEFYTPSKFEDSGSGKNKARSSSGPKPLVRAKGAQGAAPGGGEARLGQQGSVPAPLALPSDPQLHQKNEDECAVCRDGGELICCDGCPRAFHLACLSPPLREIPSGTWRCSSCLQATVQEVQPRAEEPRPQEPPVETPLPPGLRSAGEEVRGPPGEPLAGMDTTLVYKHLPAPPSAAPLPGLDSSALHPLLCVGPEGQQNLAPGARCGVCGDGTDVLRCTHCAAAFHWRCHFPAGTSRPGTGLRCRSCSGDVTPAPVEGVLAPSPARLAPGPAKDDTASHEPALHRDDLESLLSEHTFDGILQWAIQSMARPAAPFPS

Variants of: B1
Experiment: AIRE transcriptional activation functional score (insulin promoter-GFP; nonsense median 0, synonymous median 1) (normalised score); higher = higher AIRE activity (more reporter activation)
Settings: with insulin promoter-GFP reporter in HEK293
assayReadout: AIRE transcriptional activation functional score
// return a plain number; no unit text

Below are worked cases with known answers.
What AIRE transcriptional activation functional score value was documented for this variant, A386T ?
1.02

What AIRE transcriptional activation functional score value was documented for this variant, V436F ?
1.11

What AIRE transcriptional activation functional score value was documented for this variant, L291P ?
1.26

What AIRE transcriptional activation functional score value was documented for this variant, P365G ?
0.47

What AIRE transcriptional activation functional score value was documented for this variant, A193D ?
1.03

More entries:
What AIRE transcriptional activation functional score value was documented for this variant, A160D ?
0.974

What AIRE transcriptional activation functional score value was documented for this variant, Q69V ?
-0.0416

What AIRE transcriptional activation functional score value was documented for this variant, P381G ?
1.11

What AIRE transcriptional activation functional score value was documented for this variant, Q275P ?
1.19
